# Protocol Notes: amyloid nucleation score (Sup35N fusion, yeast selection) (log enrichment); library NNK1; higher = more nucleation; inactive = no reads after selection;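 further: zero at mode of non-aggregating sequences after 7 days selection at 30°C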
Outcome Measure: amyloid nucleation score

- Substance: "YMASEG"
  Obs Value: "inactive"
- Substance: "NAYRYMCRCGFLSLRAGWRV"
  Obs Value: "inactive"
- Substance: "DRTLDDPGVHHASKAE"
  Obs Value: "inactive"
- Substance: "DYRTCSCF"
  Obs Value: "inactive"
- Substance: "YWDKMTLTKNFKWLDLLGVG"
  Obs Value: "inactive"
- Substance: "SVPMMSML"
  Obs Value: 0.019
- Substance: "NFGIRGRRTAGLEVRCLRRC"
  Obs Value: -1.22
- Substance: "KGNRGQ"
  Obs Value: "inactive"
- Substance: "VRCIVTERLTLAMDW"
  Obs Value: 0.199

* * *

# Protocol Notes: amyloid nucleation score (Sup35N fusion, yeast selection) (log enrichment); library NNK1; higher = more nucleation; inactive = no reads after selection

- Query Sequence: "PSTRRVGDWDFLTSSTGRTM"
  amyloid nucleation score: -0.403
- Query Sequence: "FDFACCTTGIGPFSCDLGSG"
  amyloid nucleation score: 7.69
- Query Sequence: "PYVGHVGVKRDSNCK"
  amyloid nucleation score: 0.206
- Query Sequence: "NYAARPHSRSLLGAYDCSWS"
  amyloid nucleation score: 0.731
- Query Sequence: "RGSKRTVKLNSGVRVKSYDW"
  amyloid nucleation score: 0.373
- Query Sequence: "DGSVFFKADRVPLRSSNGGI"
  amyloid nucleation score: 1.2
- Query Sequence: "YKWLLAGGNTKCSKVRNAYW"
  amyloid nucleation score: -0.356
- Query Sequence: "DWANSTDFV"
  amyloid nucleation score: -0.195
- Query Sequence: "MCNVGTVRAYSLIQGGIRQC"
  amyloid nucleation score: 0.373

* * *

# Protocol Notes: amyloid nucleation score (Sup35N fusion, yeast selection) (log enrichment); library NNK1; higher = more nucleation; inactive = no reads after selection
Where amyloid nucleation score equals or exceeds 0.3, the correct label is Criterion met; where it does not, the label is Criterion not met.

- Substance: "KWYNTPNSDWSV"
  Classification: "Criterion not met"
- Substance: "RVVLCDI"
  Classification: "Criterion not met"
- Substance: "GMVSIII"
  Classification: "Criterion not met"
- Substance: "FGYNILYINQSTWLLNFCQV"
  Classification: "Criterion met"
- Substance: "SFSLMGRFRSFMYACIVAAC"
  Classification: "Criterion not met"
- Substance: "PIYGFLWELRR"
  Classification: "Criterion met"
- Substance: "GLMWKAN"
  Classification: "Criterion met"

* * *

Listing of entries alongside the reported amyloid nucleation score.
# Protocol Notes: amyloid nucleation score (Sup35N fusion, yeast selection) (log enrichment); library NNK2; higher = more nucleation; inactive = no reads after selection
Outcome Measure: amyloid nucleation score

- Query Sequence: "NRNLSYHT"
  Obs Value: 0.633
- Query Sequence: "FCLGRMLARPRRTCYTDENM"
  Obs Value: -0.126
- Query Sequence: "DSDHIYNRERQVIFGG"
  Obs Value: -0.607
- Query Sequence: "PILEIYVCGSLMYIFNITIV"
  Obs Value: 6.69
- Query Sequence: "EVEWAFTYHISL"
  Obs Value: -0.095
- Query Sequence: "PEFICYCANSACDWSTYCIG"
  Obs Value: 7.36
- Query Sequence: "MLLPLNYECGVQYS"
  Obs Value: -0.179
- Query Sequence: "VPHHPRVGSLPIHNSAAPYM"
  Obs Value: -0.683
- Query Sequence: "VVSCGYARHDVGDFWLRDCR"
  Obs Value: 0.481
- Query Sequence: "ILSNMGSMVFTLCNRDSMLR"
  Obs Value: -0.523
- Query Sequence: "TNKKVVRYPSPLPERSYGMR"
  Obs Value: 0.012

* * *

# Protocol Notes: amyloid nucleation score (Sup35N fusion, yeast selection) (log enrichment); library NNK1; higher = more nucleation; inactive = no reads after selection
Where amyloid nucleation score equals or exceeds -0.05, the correct label is true; where it does not, the label is false.

- Substance: "VNNYTF"
  Classification: "true"
- Substance: "VMLAGSDWLNGFRAESFCGI"
  Classification: "false"
- Substance: "STRHPTKNR"
  Classification: "true"
- Substance: "SDFNLDSSGMKRVKSRV"
  Classification: "true"
- Substance: "PCTFWAEVRINRWSYYARQR"
  Classification: "false"
- Substance: "MVRWLNTSRKFT"
  Classification: "true"
- Substance: "PSGTQCTAE"
  Classification: "true"
- Substance: "VLNYHLH"
  Classification: "false"
- Substance: "VACNKLRYMCRCQYNMTVWF"
  Classification: "false"
- Substance: "NFPKHFSSALRF"
  Classification: "false"
- Substance: "CSAYGKNTMGSESPVMSMAS"
  Classification: "true"
- Substance: "ELKLLSNAFGMQGIWIRRVV"
  Classification: "false"
- Substance: "GIAAYNGDLWMRLCYL"
  Classification: "false"
- Substance: "TSCEGEDFGRKLSREMVLWC"
  Classification: "true"
- Substance: "LRKWSERGPWP"
  Classification: "true"
- Substance: "DFHTITGMANFTLSLCYSHK"
  Classification: "false"
- Substance: "KRSTVRHYYRARCFITVAMV"
  Classification: "false"
- Substance: "LKHDRSNR"
  Classification: "true"
- Substance: "YIIVLA"
  Classification: "true"
- Substance: "LNRHYFCVGIPYGPYSQRYL"
  Classification: "true"
- Substance: "VNEFLRFFLWSHLQWMI"
  Classification: "true"
- Substance: "HINFIYRLRSFLQSCKNFSS"
  Classification: "false"
- Substance: "VYKCSQVDRVCKMAWVGLKS"
  Classification: "true"
- Substance: "TQVIAPVVCMAIDYCANITV"
  Classification: "true"
- Substance: "RSWDRYMFGRNRCVDWGR"
  Classification: "true"
- Substance: "LMRHYSHMFYIRHAVLLTNP"
  Classification: "true"
- Substance: "FNWMRP"
  Classification: "true"

* * *

# Protocol Notes: amyloid nucleation score (Sup35N fusion, yeast selection) (log enrichment); library NNK2; higher = more nucleation; inactive = no reads after selection
Outcome Measure: amyloid nucleation score

- Substance: "NVTQMRGSDISLLRMFESNY"
  Obs Value: 0.454
- Substance: "FSFLGDPKNERTVSWVMGHR"
  Obs Value: 0.478
- Substance: "VKREVLP"
  Obs Value: 0.117
- Substance: "HLFTSCYYYMPLYLLSQRQY"
  Obs Value: 6.09
- Substance: "LYEYHHGFVCQRVCGAIVGR"
  Obs Value: 1.23
- Substance: "CRWDFVLWRFLCSIKKDWVT"
  Obs Value: -0.386
- Substance: "LGNRLSKIAVGTSFKLFKK"
  Obs Value: 0.138
- Substance: "HSLFSIAWFVAQYMNFGPDN"
  Obs Value: 3.1
- Substance: "DHAGWCSDRWVTDFDFAMGN"
  Obs Value: 0.829
- Substance: "NVVSLIIQRKLRPAPVGSFR"
  Obs Value: 0.218
- Substance: "RRVGRYESWRNFSNEI"
  Obs Value: -0.835
- Substance: "SLVVPDRYVNARYCNCCYGG"
  Obs Value: 0.43
- Substance: "YEGPWQLIVVSTISVFTNSC"
  Obs Value: -0.156
- Substance: "LQHSTRLNWD"
  Obs Value: 0.954
- Substance: "FALHGEDWSNSTISRNFWSR"
  Obs Value: -0.031
- Substance: "GYTIPLYQYKNWGLE"
  Obs Value: -0.515
- Substance: "GRTYNVTEFLKSRTRWGSPL"
  Obs Value: 1.19
- Substance: "VYFSCFSLWSSYDVIGRWSC"
  Obs Value: 7.45
- Substance: "GCNLFYCLTRSSIETNTSIS"
  Obs Value: 4.3
- Substance: "DERGMCSLWSRCEYV"
  Obs Value: -0.287
- Substance: "QDGFRMYVLFDYNQCREFCS"
  Obs Value: 1.23
- Substance: "QLFAVQSLCRKRRQLRWLPT"
  Obs Value: 0.463

* * *

# Protocol Notes: amyloid nucleation score (Sup35N fusion, yeast selection) (log enrichment); library NNK3; higher = more nucleation; inactive = no reads after selection

- Substance: "EVYYPDVNLLEPGAVKLGRH"
  amyloid nucleation score: "inactive"
- Substance: "EVSSTDL"
  amyloid nucleation score: "inactive"
- Substance: "VISLRLVLNWNVTGVSLLGW"
  amyloid nucleation score: 0.611
- Substance: "CIGFGCLLIVHLPIYACPWC"
  amyloid nucleation score: "inactive"
- Substance: "PYYNRGFCGYGFSQVMEVL"
  amyloid nucleation score: "inactive"
- Substance: "LDTDWLGYSSLP"
  amyloid nucleation score: "inactive"
- Substance: "AFYYWVDEMVSLNIRLSFYN"
  amyloid nucleation score: "inactive"
- Substance: "SPGLMRYRRTPLAKSLPWMK"
  amyloid nucleation score: "inactive"
- Substance: "VMRPIPMSLYLNNFNES"
  amyloid nucleation score: "inactive"
- Substance: "LLPLDSHYISSPFY"
  amyloid nucleation score: "inactive"
- Substance: "YALCPVRPGSQQGKLGVTFL"
  amyloid nucleation score: 0.503
- Substance: "ARWVWDIKETVTLV"
  amyloid nucleation score: "inactive"
- Substance: "ENYLKVCVASVCPWLLHVRS"
  amyloid nucleation score: -0.079
- Substance: "TRHIGVGRY"
  amyloid nucleation score: "inactive"
- Substance: "WMNGISKL"
  amyloid nucleation score: "inactive"
- Substance: "RYLDCFVVVLVSDFMLRYVS"
  amyloid nucleation score: "inactive"
- Substance: "WLNVLNSYSDRSYLKETRLR"
  amyloid nucleation score: "inactive"
- Substance: "RIVIPMVWEYIFSDFVFG"
  amyloid nucleation score: 1.72
- Substance: "PQDRFSE"
  amyloid nucleation score: 1.29
- Substance: "TDYLFLSKWVTLCLSVWCNY"
  amyloid nucleation score: -0.084
- Substance: "NKVYLGLTKLHSSDPSEMAC"
  amyloid nucleation score: 2.18
- Substance: "CLIFDLSRKKYWVKRDRKAW"
  amyloid nucleation score: 1.91
- Substance: "VWLFVSSMEYTNGTYQHHMM"
  amyloid nucleation score: "inactive"
- Substance: "EMFYSVCFIYRIMFT"
  amyloid nucleation score: 1.25
- Substance: "FTCFNGQLVMA"
  amyloid nucleation score: "inactive"
- Substance: "LLVLPGGVSGVNLRDEWTDF"
  amyloid nucleation score: "inactive"
